# maps each entry to its IC50
# tested.on: recombinant ICL from C. albicans ATCC 10231 (Candida albicans)
# Construct: thioredoxin (fusion partner of the pBAD/Thio-TOPO vector); made in house; host or cells: Escherichia coli TOP10
# Sequence (Q9P8Q7 whole entry, the tested form may be a part): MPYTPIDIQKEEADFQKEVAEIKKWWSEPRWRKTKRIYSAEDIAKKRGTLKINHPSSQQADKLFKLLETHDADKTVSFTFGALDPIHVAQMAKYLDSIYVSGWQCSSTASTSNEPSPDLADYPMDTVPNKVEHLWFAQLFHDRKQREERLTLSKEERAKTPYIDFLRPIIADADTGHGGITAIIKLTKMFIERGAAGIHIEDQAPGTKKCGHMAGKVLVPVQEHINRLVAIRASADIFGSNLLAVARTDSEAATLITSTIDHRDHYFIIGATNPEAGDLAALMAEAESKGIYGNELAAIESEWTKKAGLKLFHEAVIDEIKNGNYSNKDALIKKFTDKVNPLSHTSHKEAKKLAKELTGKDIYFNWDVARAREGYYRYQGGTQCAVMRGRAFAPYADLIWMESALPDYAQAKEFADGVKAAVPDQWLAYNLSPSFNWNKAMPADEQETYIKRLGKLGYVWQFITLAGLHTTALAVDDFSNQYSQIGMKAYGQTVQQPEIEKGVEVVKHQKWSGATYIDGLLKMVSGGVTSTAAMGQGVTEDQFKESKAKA
# assay.explanation: biochemical
# condition: ICL IC50
endpoint.label: IC50 (µM)

{"compound": "CC1(C)CCC[C@]2(C)[C@H]3CC/C(=C\\OS(=O)(=O)[O-])[C@H](CCc4ccoc4)[C@@]3(C)CC[C@@H]12.[Na+] [Compound 2, suvanine salt]", "tested.on": "recombinant ICL from C. albicans ATCC 10231 (Candida albicans)", "number": 6.35}
{"compound": "CO[C@@H]1O[C@H](OC)[C@](O)(CC[C@H]2/C(=C/OS(=O)(=O)O)CC[C@H]3[C@]2(C)CC[C@H]2C(C)(C)CCC[C@]32C)[C@H]1O [Compound 8]", "tested.on": "recombinant ICL from C. albicans ATCC 10231 (Candida albicans)", "number": 67.6}

====

# tested.on: ICL from C. albicans (Candida albicans)
# assay.explanation: biochemical
# Type: biochemical
# Experimental: To determine the type of inhibition, kinetic studies were performed with compounds 1, 2 and 4 at IC50 or twofold IC50 based on Lineweaver and Burk plot (Figure 3). Inhibitor constants were obtained by Dixon plot. Figure 3 Lineweaver-Burk plot of ICL inhibition by compounds 1, 2 and 4. [S], substrate concentration [mM]; V, reaction velocity (∆absorbance unit/min). Each data point represents the mean of three experiments.
Below: a set of entries, each annotated with reported Ki.

{"compound": "CC1(C)CCC[C@]2(C)[C@H]3CC/C(=C\\OS(=O)(=O)[O-])[C@H](CCc4ccoc4)[C@@]3(C)CC[C@@H]12.[Na+] [Compound 2, suvanine salt]", "Ki, µM": 14.4}
{"compound": "CC1(C)CCC[C@]2(C)[C@H]3CC/C(=C\\OS(=O)(=O)[O-])[C@H](CCC4=CC(=O)OC4)[C@@]3(C)CC[C@@H]12.[Na+]", "Ki, µM": 62.6}

====

# tested.on: ICL from C. albicans (Candida albicans, UniProt Q9P8Q7)
# assay.explanation: biochemical
# Type: biochemical
# condition: obtained by Dixon plot; read-out: Ki (inhibitor constant)
# Description: To determine the type of inhibition, kinetic studies were performed with compounds 1, 2 and 4 at IC50 or twofold IC50 based on Lineweaver and Burk plot (Figure 3). Inhibitor constants were obtained by Dixon plot. Figure 3 Lineweaver-Burk plot of ICL inhibition by compounds 1, 2 and 4. [S], substrate concentration [mM]; V, reaction velocity (∆absorbance unit/min). Each data point represents the mean of three experiments.
pKi: −log10 of the molar value.
endpoint.label: pKi

{"compound": "CC1(C)CCC[C@]2(C)[C@H]3CC/C(=C\\OS(=O)(=O)[O-])[C@H](CCc4ccoc4)[C@@]3(C)CC[C@@H]12.C[N+](C)=C(N)N [Compound 1, suvanine salt]", "number": 4.76}

====

# Test system: C. albicans SC5314
# assay.explanation: In vitro growth assay (MIC) in YNB broth with glucose or acetate
# Type: cell-based, Candida albicans
# condition: Candida albicans, 72 h, YNB broth with 2% glucose, 3 days at 28 °C, read-out: MIC, Glucose
endpoint.label: MIC

{"molecule": "CC1(C)CCC[C@]2(C)[C@H]3CC/C(=C\\OS(=O)(=O)[O-])[C@H](CCc4ccoc4)[C@@]3(C)CC[C@@H]12.[Na+] [Compound 2, suvanine salt]", "result": "100 µg/mL"}
{"molecule": "C[C@@H]1[C@H](O)[C@@H](C)/C=C/C=C/C=C/C=C/C=C/C=C/C=C/[C@H](O[C@@H]2O[C@H](C)[C@@H](O)[C@H](N)[C@@H]2O)C[C@@H]2O[C@](O)(C[C@@H](O)C[C@@H](O)[C@H](O)CC[C@@H](O)C[C@@H](O)CC(=O)O[C@H]1C)C[C@H](O)[C@H]2C(=O)O [Amph B, Amphotericin B, reference compound]", "result": "1.56 µg/mL"}
{"molecule": "CO[C@H]1C=C(CC[C@H]2/C(=C/OS(=O)(=O)[O-])CC[C@H]3[C@]2(C)CC[C@H]2C(C)(C)CCC[C@]32C)[C@@H](OC)O1.[Na+] [Compound 7]", "result": "> 100 µg/mL"}
{"molecule": "CO[C@H]1C=C(CC[C@H]2/C(=C/OS(=O)(=O)[O-])CC[C@H]3[C@]2(C)CC[C@H]2C(C)(C)CCC[C@]32C)C(=O)O1.[Na+] [Compound 6]", "result": "> 100 µg/mL"}
{"molecule": "CC1(C)CCC[C@]2(C)[C@H]3CC/C(=C\\OS(=O)(=O)[O-])[C@H](CCC4=CC(=O)OC4)[C@@]3(C)CC[C@@H]12.[Na+] [Compound 4]", "result": "> 100 µg/mL"}
{"molecule": "C=C(CC(=O)O)C(=O)O [Itaconate, itaconate, reference compound]", "result": "> 100 µg/mL"}
{"molecule": "CO[C@@H]1C=C(CC[C@H]2/C(=C/OS(=O)(=O)[O-])CC[C@H]3[C@]2(C)CC[C@H]2C(C)(C)CCC[C@]32C)C(=O)O1.[Na+] [Compound 5]", "result": "> 100 µg/mL"}
{"molecule": "CO[C@@H]1O[C@H](OC)[C@](O)(CC[C@H]2/C(=C/OS(=O)(=O)O)CC[C@H]3[C@]2(C)CC[C@H]2C(C)(C)CCC[C@]32C)[C@H]1O [Compound 8]", "result": "> 100 µg/mL"}
{"molecule": "CC1(C)CCC[C@]2(C)[C@H]3CC/C(=C\\OS(=O)(=O)[O-])[C@H](CCC4=CCNC4=O)[C@@]3(C)CC[C@@H]12.[Na+] [Compound 9]", "result": "> 100 µg/mL"}
{"molecule": "CC1(C)CCC[C@]2(C)[C@H]3CC/C(=C\\OS(=O)(=O)[O-])[C@H](CCC4=CC(=O)O[C@@H]4O)[C@@]3(C)CC[C@@H]12.[Na+] [Compound 3]", "result": "> 100 µg/mL"}

====

# tested.on: recombinant ICL from C. albicans ATCC 10231 (Candida albicans)
# Construct: thioredoxin (fusion partner of the pBAD/Thio-TOPO vector); made in house; host or cells: Escherichia coli TOP10
# assay.explanation: biochemical
# condition: recombinant ICL from C. albicans ATCC 10231; value in parentheses; read-out: ICL IC50

{"molecule": "CO[C@@H]1C=C(CC[C@H]2/C(=C/OS(=O)(=O)[O-])CC[C@H]3[C@]2(C)CC[C@H]2C(C)(C)CCC[C@]32C)C(=O)O1.[Na+] [Compound 5]", "IC50": "50.2 µM"}
{"molecule": "CO[C@H]1C=C(CC[C@H]2/C(=C/OS(=O)(=O)[O-])CC[C@H]3[C@]2(C)CC[C@H]2C(C)(C)CCC[C@]32C)C(=O)O1.[Na+] [Compound 6]", "IC50": "96.1 µM"}
{"molecule": "CC1(C)CCC[C@]2(C)[C@H]3CC/C(=C\\OS(=O)(=O)[O-])[C@H](CCC4=CCNC4=O)[C@@]3(C)CC[C@@H]12.[Na+] [Compound 9]", "IC50": "59.1 µM"}

====

# tested.on: recombinant ICL from C. albicans ATCC 10231 (Candida albicans)
# Construct: thioredoxin (fusion partner of the pBAD/Thio-TOPO vector); made in house; host or cells: Escherichia coli TOP10
# assay.explanation: biochemical
# condition: recombinant ICL from C. albicans ATCC 10231; 37 °C, 30 min; mean ± SD (n = 3); read-out: ICL IC50
pIC50: −log10 of the molar value.
This section presents compounds with their documented pIC50 values.
endpoint.label: pIC50

{"compound": "CO[C@@H]1C=C(CC[C@H]2/C(=C/OS(=O)(=O)[O-])CC[C@H]3[C@]2(C)CC[C@H]2C(C)(C)CCC[C@]32C)C(=O)O1.[Na+]", "endpoint.label": "pIC50", "number": 4.30}
{"compound": "O=C(O)CC[N+](=O)[O-] [Compound 3-NP, 3-Nitropropinate, reference compound]", "endpoint.label": "pIC50", "number": 4.76}
{"compound": "CC1(C)CCC[C@]2(C)[C@H]3CC/C(=C\\OS(=O)(=O)[O-])[C@H](CCC4=CCNC4=O)[C@@]3(C)CC[C@@H]12.[Na+]", "endpoint.label": "pIC50", "number": 4.23}
{"compound": "CC1(C)CCC[C@]2(C)[C@H]3CC/C(=C\\OS(=O)(=O)[O-])[C@H](CCC4=CC(=O)O[C@@H]4O)[C@@]3(C)CC[C@@H]12.[Na+]", "endpoint.label": "pIC50", "number": 4.25}
{"compound": "CO[C@H]1C=C(CC[C@H]2/C(=C/OS(=O)(=O)[O-])CC[C@H]3[C@]2(C)CC[C@H]2C(C)(C)CCC[C@]32C)C(=O)O1.[Na+]", "endpoint.label": "pIC50", "number": 4.02}
